Listed binders paired with reported Relative affinity activity (B2-NFAT-CHO-K1 luciferase reporter gene assay, from EC50)
Target: B2 receptor
Sequence (P30411 whole entry): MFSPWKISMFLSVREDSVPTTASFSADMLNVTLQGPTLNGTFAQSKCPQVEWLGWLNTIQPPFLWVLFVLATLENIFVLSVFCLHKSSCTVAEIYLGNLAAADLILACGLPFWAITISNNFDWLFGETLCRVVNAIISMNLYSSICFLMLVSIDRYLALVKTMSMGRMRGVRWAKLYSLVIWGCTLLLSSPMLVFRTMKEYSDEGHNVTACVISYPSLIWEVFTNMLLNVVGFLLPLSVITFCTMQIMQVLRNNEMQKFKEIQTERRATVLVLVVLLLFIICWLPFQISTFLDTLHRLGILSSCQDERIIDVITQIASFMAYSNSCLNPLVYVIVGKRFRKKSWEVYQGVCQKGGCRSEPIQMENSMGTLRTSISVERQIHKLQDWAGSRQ
Test: cell-based or functional assay

Exam item: Consider the binder KRPPGXSPXR ({THI} (β-2-thiophenylalanine) at positions 6 and 9: KRPPG{THI}SP{THI}R) [Lys-BKm07] and give its recorded Relative affinity activity (B2-NFAT-CHO-K1 luciferase reporter gene assay, from EC50).
Marked response: < 10%

Exam item: Give recorded Relative affinity activity (B2-NFAT-CHO-K1 luciferase reporter gene assay, from EC50). KRPPGFSPFR [Lys-BK (wild-type lysyl bradykinin)]
Marked response: 100%

Exam item: Please indicate Relative affinity activity (B2-NFAT-CHO-K1 luciferase reporter gene assay, from EC50) recorded for KRPPGFSPHR [Lys-BKm04]
Marked response: < 10%

Others:
Exam item: Annotate the binder KRPPGXSPFRR ({THI} (β-2-thiophenylalanine) at position 6: KRPPG{THI}SPFRR) [Lys-BKm06] with its measured Relative affinity activity (B2-NFAT-CHO-K1 luciferase reporter gene assay, from EC50).
Marked response: 90%
